# test-system: Carbonic anhydrase 12 (Homo sapiens, UniProt O43570)
# Sequence (O43570 whole entry): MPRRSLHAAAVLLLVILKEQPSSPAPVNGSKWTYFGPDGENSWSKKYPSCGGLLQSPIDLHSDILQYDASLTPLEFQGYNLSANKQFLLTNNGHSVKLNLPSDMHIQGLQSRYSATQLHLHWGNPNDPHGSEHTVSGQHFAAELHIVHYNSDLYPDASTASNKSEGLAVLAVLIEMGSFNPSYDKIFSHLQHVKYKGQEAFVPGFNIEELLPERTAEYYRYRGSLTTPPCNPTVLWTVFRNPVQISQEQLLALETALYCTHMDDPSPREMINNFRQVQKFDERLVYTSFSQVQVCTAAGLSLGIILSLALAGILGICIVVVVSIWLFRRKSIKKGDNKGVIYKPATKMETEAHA
readout-name: Ki (nM)

>>> df
                         structure_notation  result_value
0  NS(=O)(=O)c1ccc(C(=O)N/N=C/c2ccccc2O)cc1          32.7

====

# test-system: Carbonic anhydrase 12 (Homo sapiens, UniProt O43570)
pIC50: −log10 of the molar value.
readout-name: pIC50

In [3]: df
Out[3]:
                         structure_notation  result_value
0  CCOC(=O)c1ccc(N/N=C/c2cn(-c3ccc(S(N)(=O)=O)cc3)nc2-c2ccc(C)cc2)cc1          6.81
